Catalogue of growth inhibition readings, one per entry.
MEASUREMENT PROTOCOL: NCI Yeast Anticancer Drug Screen. Data for the rad50EPP+ strain (AID 151);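 note: 0% = growth of vehicle-treated control cultures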
DETAILS: S. cerevisiae rad50 mutant strain, at 1.2 µM, hits give high values
Compounds without any hit were thinned out: in the full panel of roughly 79,000, 15% have a hit.

{"columns": ["COMPOUND", "growth inhibition (%)"],
 "data": [
  ["N#Cc1nc(Nc2ccc(Cl)cc2)sc1N", -36],
  ["COC1=CCC23C(=O)C=CC(=O)C2(C1)C(=O)c1ccccc1C3=O (stereo not drawn)", 19],
  ["C[n+]1c(-c2ccc(/C=N/NC(=O)c3ccc(C(=O)N/N=C/c4ccc(-c5cn6ccccc6[n+]5C)cc4)cc3)cc2)cn2ccccc21", 69],
  ["CC(=O)/C(=C\\c1ccc(Cl)c(Cl)c1)C(=O)C(C)CN(C)C (stereo not drawn)", 7],
  ["CC(=O)O/N=C1C=C/C(=C(/C#N)c2ccccc2)C=C/1C", 43],
  ["CN(N=O)C(=O)Nc1ccc(C(=O)O)cc1", -1],
  ["O=c1[nH]c2c([N+](=O)[O-])cccc2c2ccccc12", 5],
  ["O=C(NCCCCN1CC2CCCC2C1)C(C1CCCCC1)C1CCCCC1 (stereo not drawn)", 0],
  ["Cc1cc(C)c2[s+]snc2c1", 1],
  ["CCCCCCCCSC1=C(Cl)C(=O)C(OC)=C(OC)C1=O", -29],
  ["COc1cc(NCCCCNCC(C)(C)C)c2ncccc2c1", -8],
  ["Cc1cc2nc3ccccc3n2c2ccccc12", -49],
  ["O=C1Oc2ccccc2C(=O)/C1=C/N1C(=O)N/C(=C\\c2ccccc2Br)C1=O", -2],
  ["N#CSCC1COc2ccccc2O1 (stereo not drawn)", -28],
  ["CC(=O)/C=C/c1cc([N+](=O)[O-])ccc1O", -27],
  ["Cc1cccc2c(NCCCN(C)C)c3c([N+](=O)[O-])ccc(C)c3nc12", 29],
  ["CCS(=O)(=O)Nc1ccc(Nc2c3ccccc3nc3ccccc23)c(OC)c1", -1],
  ["CCCCCCCCCCCCCCCCCCNc1nc(=O)n(C2CC(OP(=O)(O)OCC3OC(n4cc(F)c(=O)[nH]c4=O)CC3O)C(CO)O2)cc1F (stereo not drawn)", 9],
  ["Cc1cccc2c1C1c3c(C)cccc3C(CC(=O)O)CC1CC2 (stereo not drawn)", 15],
  ["CC12CCC(CC(=O)/C1=C(/Br)I)C2(C)C (stereo not drawn)", 1],
  ["CCCCCCCSCC1C(=O)C23C(O)C1CCC2C12COC3(O)C(O)C1C(C)(C)CCC2O (stereo not drawn)", 26],
  ["CC(C)OP(=O)(OC(C)C)C(=NCCO)NNc1ccc([N+](=O)[O-])cc1", -2],
  ["Nc1cc2ccccc2cc1N", -37],
  ["O=C1/C(=C/c2ccc(Cl)c(Cl)c2)CNC/C1=C\\c1ccc(Cl)c(Cl)c1", 14],
  ["NC(=S)N1N=C2c3ccccc3CC[C@H]2[C@@H]1c1ccc(Cl)cc1", -14],
  ["S=C1N(c2ccc(Cl)cc2)C2=C(N=Nc3ccccc3)C(=Nc3ccccc3S2)N1c1ccccn1", -11],
  ["CSc1nc(-c2ccccc2)nc(=[N+]2CCOCC2)s1", 27],
  ["O=C1CCC(Cc2ccccc2)CN1 (stereo not drawn)", -1],
  ["c1ccc(-c2cc(C3CO3)c3ccccc3n2)cc1 (stereo not drawn)", 2],
  ["CCN(CC)CCNc1ccc2nc(C)n3c4ccc(OC)cc4c(=O)c1c23", 9],
  ["OC1(C#CI)CCCCC1", -16],
  ["COc1ccc2nc3cccc([N+](=O)[O-])c3c(NCCNCCO)c2c1", 2],
  ["N#C/C(=C\\NC(=S)Nc1ccc(S(N)(=O)=O)cc1)C(=O)c1ccc2ccccc2c1", -1],
  ["CCN(CC)CCNc1ccc2nc(C)n3c4ccc(O)cc4c(=O)c1c23", 5],
  ["CC(=O)CCC1=C(C)C(=O)C(=O)C(C)=C1O", -2],
  ["CC1=CN2C(c3ccccc3)=NON(c3ccc(C)cn3)C2C=C1 (stereo not drawn)", 6],
  ["CCOP(=O)(OCC)/C(C#N)=C\\c1cccc2ccccc12", 8],
  ["COC(=O)C1=C(C(=O)OC)CC(n2nnc(C(=O)OC)c2C(=O)OC)=CC1", -2],
  ["C/C(=N\\OCC(O)CNCCSCc1ccccc1)c1ccccc1Cl (stereo not drawn)", -1],
  ["CC1CCC(C2=CSC3CCCCC3N2)CC1 (stereo not drawn)", 1],
  ["c1ccc2c(c1)ccn2CCc1c[nH]c2ccccc12", -33],
  ["O=C(Oc1ccc([N+](=O)[O-])cc1)c1ccc([N+](=O)[O-])cc1", 5],
  ["C=COC(=O)N[C@H]1CCc2cc(OC)c(OC)c(OC)c2-c2ccc(SC)c(=O)cc21", -8]
]}

Data origin, for the record: PubChem BioAssay (NCI)
